Values were extracted from patent US9784732B2.

Reported pKa values for the following compounds.
protocol_description: pH profile of fluorescent intensity (pKa) in phosphate buffer
Format: physicochemical
setup_conditions: sodium phosphate buffer, from pH profile of fluorescent intensity; read-out: pKa (lower, pKa1)
property: pKa

[[record]]
compound = "CN1CCN(c2ccc3c(-c4ccccc4C(=O)N(C)CC(=O)NCCOCCOCCOCCC(=O)[O-])c4ccc(=[N+]5CCN(C)CC5)cc-4oc3c2)CC1 [Compound D]"
endpoint_result = 5.3

[[record]]
compound = "CN1CCN(c2ccc3c(-c4ccccc4C(=O)O)c4ccc(=[N+]5CCN(C)CC5)cc-4oc3c2)CC1.[Cl-] [Compound A]"
endpoint_result = 5.4

